Test system: MCF7 breast
Experiment: NCI tumour cell line growth inhibition, 48 h; in the data active means GI50 below about 0.43 µM; inactive means the rest
Would you mind answering with one of these outcomes? active, inactive

[ask] Hi, do you know how `CCN(CC)Cc1cc(Nc2ccnc3ccc(OC)cc23)ccc1O` came out in this test?
[reply] inactive

[ask] Could you please tell me the result logged for `CN(C)C/C=C/C(=O)Nc1ccc(C(=O)Nc2cccc(Nc3ncc(Cl)c(-c4c[nH]c5ccccc45)n3)c2)cc1` in this assay?
[reply] active

[ask] What classification did `O=C(O)C1CC[N-]CC1.O=C(O)C1CC[N-]CC1.[NH2-].[NH2-].[Pt+4]` end up with in this test?
[reply] inactive

[ask] For `N#Cc1ncc(-c2ccc(C(F)(F)F)cc2)c(NC2CCCCCC2)n1` , what call appears in the results of this test?
[reply] inactive

[ask] Short answer needed: outcome of this test for `c1ccc(C2=Nc3ccccc3N3CNN=C23)cc1` ?
[reply] inactive

[ask] Test call, this compound: `CC(C)N(CCNc1nc(C(Cl)(Cl)Cl)nc2cc(Cl)ccc12)C(C)C`
[reply] inactive

[ask] Each compound tested received a call. Report the one for `Cc1ccc(/C=C(/C#N)n2nnc3cccc(F)c32)cc1` .
[reply] inactive

[ask] Any idea what this test logged for `Cn1ccc(S(=O)(=O)N2CCC[C@H](Nc3nccc(-c4c(-c5cccc(O)c5)nc5occn45)n3)C2)n1` ?
[reply] inactive

[ask] I'd appreciate the recorded outcome for `Cc1cc(NS(=O)(=O)c2ccc(-c3cnc(C4CC4)o3)cc2)ccc1Cl` from this test.
[reply] active

[ask] Write down the call the test reported for this compound. Item: `COc1cc2c3c(n(CCCNCCCCN)c(=O)c2cc1OC)-c1cc2c(cc1C3=O)OCO2`
[reply] active

[ask] # lookup: test call for `COc1cccc(N2C(=N)/C(=C3\Nc4ccccc4S3)CC2=O)c1`
[reply] inactive

[ask] Any idea what this test logged for `C=C1CC[C@@](C)(c2cc(Br)c(C)cc2OC(C)=O)[C@H]1C` ?
[reply] inactive

[ask] Answer briefly: the call reported for `Nc1ncc(-c2ccc3ncnc(N4CCc5cc(F)c(Cl)cc54)c3c2)cc1C=O` in this assay.
[reply] inactive

[ask] I'd appreciate the recorded outcome for CCCCCCCCCCCCCCCC(=O)OCC1OC(OCCCC)[C@H](O[C@@H]2OC(C)C(OC(=O)CCC)C(O)C2O)C(O)C1O (some centres undefined) from this test.
[reply] inactive

----------
Tested on: MDA-N
Test: NCI tumour cell line growth inhibition, 48 h
reported metric: TGI (µM)
Give just the number in µM; leave the unit off.

[ask] Provide only the value of recorded TGI for CC(O)C1(O)C(O)CC(OC2c3cc4c(c(O)c3[C@@H]3C[C@@]2(C)OC32C=c3cc[nH]c3=N2)C(=O)c2cccc(O)c2C4=O)OC1C (stereo not given in full)
[reply] 3.41

[ask] Indicate the recorded TGI value for this compound: `COC1=CC(=O)C2=C(C1=O)[C@H]1CC[C@]3(C)C(=O)CC[C@H]3[C@@H]1CC2`
[reply] 65.1

----------
System: UO-31 renal
Assay: NCI tumour cell line growth inhibition, 48 h
reported metric: TGI

[ask] Supply TGI measured with UO-31 renal for `O=C(N[C@H](CO)[C@H](O)c1ccc([N+](=O)[O-])cc1)C(Cl)Cl` .
[reply] > 100 µM

[ask] Report value only: TGI, UO-31 renal, `CCOC(=O)CCCc1cc(=O)c2c(C)c3[nH]c4ccc(Cl)cc4c3c(C)c2[nH]1`
[reply] 45.4 µM

[ask] Name the value of TGI reported for `O=C(Nc1ccc(Nc2ccc(NC(=O)c3ccccc3)c3c2C(=O)c2ccccc2C3=O)c2c1C(=O)c1ccccc1C2=O)c1ccccc1` when tested on UO-31 renal.
[reply] > 100 µM

[ask] Tell me TGI of `Cc1cc(N(C)c2ccccc2)nc(N(C)c2ccccc2)n1` when tested on UO-31 renal.
[reply] > 100 µM

[ask] Answer with TGI of CN1C(=O)C(O)CC1c1ccccc1F (centres undefined) measured for UO-31 renal.
[reply] > 100 µM

[ask] Lab note: record TGI of `CC(=O)n1nc(-c2[nH]c(C)c(-c3nn(C(C)=O)c(=S)o3)c2C)oc1=S` tested on UO-31 renal.
[reply] > 100 µM

[ask] Please tell me the measured TGI for `NC(N)=N/N=C/c1c(-c2ccc([N+](=O)[O-])cc2)nc2sc(Cl)cn12` ; system: UO-31 renal.
[reply] 2.68 µM

[ask] Fill in: TGI on UO-31 renal, entry C=C1[C@@H](OC(C)=O)/C=C/C2C3C(=O)[C@@](C)(OC(C)=O)[C@H]([C@H](OC(C)=O)[C@]4(O)[C@@H](C)C(=O)O[C@H]4[C@H]1Cl)[C@@]23C (some centres undefined)
[reply] > 100 µM

[ask] Answer briefly: TGI recorded on UO-31 renal for `O=S(=O)(Cc1ccccc1)c1nnc(S(=O)(=O)c2ccc(Cl)cc2)s1`
[reply] 44.5 µM

----------
Test system: DMS 114 small cell lung
Assay: NCI tumour cell line growth inhibition, 48 h
reported metric: TGI (µM)
Value expressed in µM; do not type the unit.

[ask] For CC1CN1c1c(C(=O)/C=C/c2ccc(F)cc2)c(-c2ccccc2)nn(C)c1=O (stereo not given) , write its TGI.
[reply] 31.1

[ask] Check the records and state TGI for `Nc1nc(N)c2c(Cl)c(CNc3ccc(Cl)c(Cl)c3)ccc2n1`
[reply] 4.85

----------
Tested on: RXF 393 renal
Test: NCI tumour cell line growth inhibition, 48 h
What GI50 was measured for each of the following?

[ask] Identify the reported GI50 for the following entry. CC(=O)[CH-]C(=O)c1ccccc1.CC(=O)[CH-]C(=O)c1ccccc1.CC[C@H](CCC(C)[C@H]1CCC2[C@@H]3CC=C4C[C@@H]([O-])CC[C@]4(C)C3CC[C@@]21C)C(C)C.CC[C@H](CCC(C)[C@H]1CCC2[C@@H]3CC=C4C[C@@H]([O-])CC[C@]4(C)C3CC[C@@]21C)C(C)C.Cl.[Ti+4] (some centres undefined)
[reply] > 25 µM

[ask] Please report GI50 for the following compound: `C=CCc1cc(O)ccc1O`
[reply] 26.3 µM

[ask] Please report GI50 for the following compound: `Oc1ccc(/C=N/NC(=S)Nc2ccccc2)nc1`
[reply] 0.667 µM

[ask] Supply recorded GI50 for `Cc1ncnc2c1ccn2[C@@H]1C[C@H](Oc2cc(C(F)F)c(F)c3c2CNCC3)[C@@H](O)[C@H]1O` here.
[reply] > 100 µM

----------
For each of the compounds below, state its TGI.
Test system: UACC-62 melanoma
Assay: NCI tumour cell line growth inhibition, 48 h

[ask] Tell me its TGI on UACC-62 melanoma: `CC=C/C=C/[C@@H]1O[C@](O)([C@H](CC)C(=O)NC/C=C/C=C(\C)[C@@H](OC)[C@@H](C)[C@@H]2O[C@H](/C=C/C=C/C=C(\C)C(=O)c3c(O)cc[nH]c3=O)[C@H](O)[C@@H]2O)[C@H](O)[C@H](O)C1(C)C`
[reply] > 100 µM

[ask] Supply TGI measured with UACC-62 melanoma for NC(=S)N/N=C/C(O[C@@H](/C=N/NC(N)=S)CO)n1cnc2c(N)ncnc21 (stereo partly specified) .
[reply] > 100 µM

[ask] For UACC-62 melanoma, give the measured TGI of the entry `COc1ccc(/C=C/C(=O)C(=O)/C=C/c2ccc(OC)c(OC)c2)cc1OC`
[reply] 4.87 µM

[ask] Write down the reported TGI (system: UACC-62 melanoma) of CCCCN(CCCC)CC(C(=O)Nc1ccc([N+](=O)[O-])cc1[N+](=O)[O-])/C(C)=N\NC(=O)c1ccncc1 (stereo unspecified)
[reply] > 100 µM

[ask] Report measured TGI on UACC-62 melanoma; entry: CC(=O)[CH-]C(=O)c1ccccc1.CC(=O)[CH-]C(=O)c1ccccc1.CC[C@H](CCC(C)[C@H]1CCC2[C@@H]3CC=C4C[C@@H]([O-])CC[C@]4(C)C3CC[C@@]21C)C(C)C.CC[C@H](CCC(C)[C@H]1CCC2[C@@H]3CC=C4C[C@@H]([O-])CC[C@]4(C)C3CC[C@@]21C)C(C)C.Cl.[Ti+4] (stereo partly specified)
[reply] > 25 µM

[ask] Please indicate recorded TGI of `N#C/C(=C\c1ccc(O)c(O)c1)C(=O)NCc1cccc(C(F)(F)F)c1` measured with UACC-62 melanoma.
[reply] 23.8 µM

----------
System: SR leukemia
Assay: NCI tumour cell line growth inhibition, 48 h
Provide the reported TGI of each item.

[ask] Give TGI for the following molecule: `C=C(CC)C(=O)c1ccc(OCC(=O)O)c(Cl)c1Cl`
[reply] > 100 µM

[ask] Read off the recorded TGI for `O=C(CC(O)(C(F)(F)F)C(F)(F)F)c1cccs1`
[reply] > 10 µM

[ask] // Input: `O=c1c2c3c(sc2nc2n1sc1nc4sc5c(c4c(=O)n12)CCCC5)CCCC3` . Output its TGI only.
[reply] > 84.9 µM

[ask] Read the entry `O=C(O)c1cc(-c2ccc(-c3ccccc3)cc2)nc2cc3ccccc3cc12` and write its reported TGI.
[reply] > 100 µM

[ask] Input `O=C(CCl)N1CCN(c2ccccc2)CC1` , output reported TGI.
[reply] > 100 µM

[ask] For the molecule `CN(C)C/C=C/C(=O)Nc1ccc(C(=O)Nc2cccc(Nc3ncc(Cl)c(-c4c[nH]c5ccccc45)n3)c2)cc1` , give its reported TGI.
[reply] > 100 µM

[ask] Supply recorded TGI for `C[n+]1c(-c2ccc(/C=N\Nc3ccnc(N/N=C/c4ccc(-c5cn6ccsc6[n+]5C)cc4)n3)cc2)cn2ccsc21` here.
[reply] 64.8 µM

[ask] Provide only the value of recorded TGI for `CCOC(=O)C1(C)C2=CC=C(O2)C(C)(C)C2=CC=C(O2)C(C)(C)C2=CC=C(O2)C(C)(C)C2=CC=C1O2`
[reply] > 100 µM

[ask] Supply reported TGI belonging to this molecule: `CC[C@@]1(O)C(=O)OCc2c1cc1n(c2=O)Cc2cc3cc(O)ccc3nc2-1`
[reply] 2.14 µM

[ask] Look up TGI of `CCc1n[nH]c(=O)n1-n1c(C)ccc1C` and report it.
[reply] > 100 µM
